Source listed as patent US20190100534A1.

Known MIC of a selection of molecules
system: Isogenic E. coli J58 strain carrying KPC-2; assay: MIC determination, isogenic E. coli strains; assay type: cell-based; details: Escherichia coli, 18 h, read-out: Mimimum Inhibitory Concentrations, KPC-2
Give just the number in µg/mL; leave the unit off.

molecule	data.value
CC(C)(O/N=C(\C(=O)N[C@@H]1C(=O)N2C(C(=O)O)=C(C=Cc3ccc(C[n+]4cccc(-c5ccc(O)c(O)c5)c4)cc3)CS[C@H]12)c1csc(N)n1)C(=O)O (mixture of isomers) [Compound 413]	8

Moving on to the next molecule.
Which MIC reading was recorded for the molecule CC(C)(O/N=C(\C(=O)N[C@@H]1C(=O)N2C(C(=O)O)=C(C=Cc3ccc(C[N+]4(C)CCc5cc(O)c(O)cc5C4)cc3)CS[C@H]12)c1csc(N)n1)C(=O)O (mixture of isomers) [Compound 407] ?
8
